System: Spodoptera litura
assay_summary: Insecticidal activity against Spodoptera litura in compound treated chinese cabbage leaves assessed as mortality after foliar dipping at 10 mg/l at 25 degC measured after 120 hr
Assay type: functional
Recorded measurements of mortality at 10 µg/mL, one per entry
measured_property: mortality at 10 µg/mL (%)

sample_smiles | target_desc | measured_property | recorded_number
O=[N+]([O-])/N=C1\N(CCCCCCCCCCN2CCN(Cc3ccc(Cl)nc3)/C2=N/[N+](=O)[O-])CCN1Cc1ccc(Cl)nc1 | Spodoptera litura | mortality at 10 µg/mL | 0
O=[N+]([O-])/N=C1\N(CCN2CCN(Cc3ccc(Cl)nc3)/C2=N/[N+](=O)[O-])CCN1Cc1ccc(Cl)nc1 | Spodoptera litura | mortality at 10 µg/mL | 0
O=[N+]([O-])/N=C1\N(CCCCCCCN2CCN(Cc3ccc(Cl)nc3)/C2=N/[N+](=O)[O-])CCN1Cc1ccc(Cl)nc1 | Spodoptera litura | mortality at 10 µg/mL | 23
O=[N+]([O-])/N=C1\N(CCCCN2CCN(Cc3ccc(Cl)nc3)/C2=N/[N+](=O)[O-])CCN1Cc1ccc(Cl)nc1 | Spodoptera litura | mortality at 10 µg/mL | 7

---

System: Spodoptera litura
assay_summary: Insecticidal activity against Spodoptera litura in compound treated chinese cabbage leaves assessed as mortality after foliar dipping at 10 mg/l at 25 degC measured after 120 hr
Type: functional
Recorded measurements of mortality at 10 µg/mL, one per entry
measured_property: mortality at 10 µg/mL (%)

sample_smiles | recorded_number
O=[N+]([O-])/N=C1\N(CCCN2CCN(Cc3ccc(Cl)nc3)/C2=N/[N+](=O)[O-])CCN1Cc1ccc(Cl)nc1 | 13
O=[N+]([O-])/N=C1\N(CCCCCCCCCN2CCN(Cc3ccc(Cl)nc3)/C2=N/[N+](=O)[O-])CCN1Cc1ccc(Cl)nc1 | 3
O=[N+]([O-])/N=C1\N(CCCCCCCCN2CCN(Cc3ccc(Cl)nc3)/C2=N/[N+](=O)[O-])CCN1Cc1ccc(Cl)nc1 | 27
O=[N+]([O-])/N=C1/N(Cc2ccc(Cl)nc2)CCN1Cc1cccc(CN2CCN(Cc3ccc(Cl)nc3)/C2=N/[N+](=O)[O-])c1 | 3
O=[N+]([O-])/N=C1\N(CCCCCCN2CCN(Cc3ccc(Cl)nc3)/C2=N/[N+](=O)[O-])CCN1Cc1ccc(Cl)nc1 | 27
O=[N+]([O-])/N=C1\N(CCCCCCCCCCCCN2CCN(Cc3ccc(Cl)nc3)/C2=N/[N+](=O)[O-])CCN1Cc1ccc(Cl)nc1 | 0
O=[N+]([O-])/N=C1\N(Cc2ccc(CN3CCN(Cc4ccc(Cl)nc4)/C3=N/[N+](=O)[O-])cc2)CCN1Cc1ccc(Cl)nc1 | 3
O=[N+]([O-])/N=C1\N(CCCCCN2CCN(Cc3ccc(Cl)nc3)/C2=N/[N+](=O)[O-])CCN1Cc1ccc(Cl)nc1 | 0
O=[N+]([O-])NC1=NCCN1Cc1ccc(Cl)nc1 | 17

---

Recorded measurements of logP, one per entry
assay_summary: Octanol-water partition coefficient, log P of the compound
Assay type: physicochemical
reported_conditions: read-out: logP

sample_smiles | logP
O=[N+]([O-])/N=C1\N(CCCCCCCCCCCCN2CCN(Cc3ccc(Cl)nc3)/C2=N/[N+](=O)[O-])CCN1Cc1ccc(Cl)nc1 | 6.14
O=[N+]([O-])/N=C1\N(CCCCCCCN2CCN(Cc3ccc(Cl)nc3)/C2=N/[N+](=O)[O-])CCN1Cc1ccc(Cl)nc1 | 5.18
O=[N+]([O-])/N=C1/N(Cc2ccc(Cl)nc2)CCN1Cc1cccc(CN2CCN(Cc3ccc(Cl)nc3)/C2=N/[N+](=O)[O-])c1 | 5.69
O=[N+]([O-])/N=C1\N(CCCCCCCCN2CCN(Cc3ccc(Cl)nc3)/C2=N/[N+](=O)[O-])CCN1Cc1ccc(Cl)nc1 | 5.37
O=[N+]([O-])/N=C1\N(CCCCCCCCCN2CCN(Cc3ccc(Cl)nc3)/C2=N/[N+](=O)[O-])CCN1Cc1ccc(Cl)nc1 | 5.57
